- System: Rattus norvegicus
- procedure_details: Hypolipidemic activity in Sprague-Dawley rat assessed as reduction in serum cholesterol level at 0.25 % compound administered in diet for 14 days relative to control
- Assay type: functional
- Set-up: scale not given: the % may be the effect or the level left
I'd be grateful if you could share measured Activity for these entries.
Dear colleague, please return just the value in %, with no unit written.

Prompt: Query Activity for CCCCCC(Sc1cc(C(C)(C)C)c(O)c(C(C)(C)C)c1)C(=O)O (centres undefined)
Completion: -24

Prompt: Query Activity for CCOC(=O)C(C)(C)Oc1ccc(Cl)cc1 [CLOFIBRATE]
Completion: -28

Prompt: Query Activity for CCC(Sc1cc(C(C)(C)C)c(O)c(C(C)(C)C)c1)C(=O)O (centres undefined)
Completion: -37

Prompt: Query Activity for CCCCC(Sc1cc(C(C)(C)C)cc(C(C)(C)C)c1)C(=O)O (centres undefined)
Completion: -20

Prompt: Query Activity for CCC(C)(Sc1cc(C(C)(C)C)c(O)c(C(C)(C)C)c1)C(=O)O (centres undefined)
Completion: -32

Prompt: Query Activity for CCOC(=O)C(CC)Sc1cc(C(C)(C)C)c(O)c(C(C)(C)C)c1 (centres undefined)
Completion: -5

Prompt: Query Activity for "CC(C)(Sc1cc(C(C)(C)C)c(O)c(C(C)(C)C)c1)Sc1cc(C(C)(C)C)c(O)c(C(C)(C)C)c1"
Completion: 38

Prompt: Query Activity for CCCCC(Sc1cc(C(C)(C)C)c(O)c(C(C)(C)C)c1)C(=O)O (racemic)
Completion: -30

Prompt: Query Activity for "CCOC(=O)C(C)(C)Sc1cc(C(C)(C)C)c(O)c(C(C)(C)C)c1"
Completion: -23

Prompt: Query Activity for CC(Sc1cc(C(C)(C)C)c(O)c(C(C)(C)C)c1)C(=O)O (centres undefined)
Completion: -32

Prompt: Query Activity for "CC(C)(C)c1cc(SCC(=O)O)cc(C(C)(C)C)c1O"
Completion: -16

Prompt: Query Activity for CCCCC(C(=O)O)S(=O)(=O)c1cc(C(C)(C)C)c(O)c(C(C)(C)C)c1 (centres undefined)
Completion: -17

Prompt: Query Activity for CCCC(Sc1cc(C(C)(C)C)c(O)c(C(C)(C)C)c1)C(=O)OCC (centres undefined)
Completion: 0

Prompt: Query Activity for "CC(C)(Sc1cc(C(C)(C)C)c(O)c(C(C)(C)C)c1)C(=O)O"
Completion: -21
